The measured values listed here are drawn from the Kinase Knowledgebase extract (Sharma et al. 2016).

Molecular target: UniProt:P42336
Sequence (P42336 whole entry, looked up): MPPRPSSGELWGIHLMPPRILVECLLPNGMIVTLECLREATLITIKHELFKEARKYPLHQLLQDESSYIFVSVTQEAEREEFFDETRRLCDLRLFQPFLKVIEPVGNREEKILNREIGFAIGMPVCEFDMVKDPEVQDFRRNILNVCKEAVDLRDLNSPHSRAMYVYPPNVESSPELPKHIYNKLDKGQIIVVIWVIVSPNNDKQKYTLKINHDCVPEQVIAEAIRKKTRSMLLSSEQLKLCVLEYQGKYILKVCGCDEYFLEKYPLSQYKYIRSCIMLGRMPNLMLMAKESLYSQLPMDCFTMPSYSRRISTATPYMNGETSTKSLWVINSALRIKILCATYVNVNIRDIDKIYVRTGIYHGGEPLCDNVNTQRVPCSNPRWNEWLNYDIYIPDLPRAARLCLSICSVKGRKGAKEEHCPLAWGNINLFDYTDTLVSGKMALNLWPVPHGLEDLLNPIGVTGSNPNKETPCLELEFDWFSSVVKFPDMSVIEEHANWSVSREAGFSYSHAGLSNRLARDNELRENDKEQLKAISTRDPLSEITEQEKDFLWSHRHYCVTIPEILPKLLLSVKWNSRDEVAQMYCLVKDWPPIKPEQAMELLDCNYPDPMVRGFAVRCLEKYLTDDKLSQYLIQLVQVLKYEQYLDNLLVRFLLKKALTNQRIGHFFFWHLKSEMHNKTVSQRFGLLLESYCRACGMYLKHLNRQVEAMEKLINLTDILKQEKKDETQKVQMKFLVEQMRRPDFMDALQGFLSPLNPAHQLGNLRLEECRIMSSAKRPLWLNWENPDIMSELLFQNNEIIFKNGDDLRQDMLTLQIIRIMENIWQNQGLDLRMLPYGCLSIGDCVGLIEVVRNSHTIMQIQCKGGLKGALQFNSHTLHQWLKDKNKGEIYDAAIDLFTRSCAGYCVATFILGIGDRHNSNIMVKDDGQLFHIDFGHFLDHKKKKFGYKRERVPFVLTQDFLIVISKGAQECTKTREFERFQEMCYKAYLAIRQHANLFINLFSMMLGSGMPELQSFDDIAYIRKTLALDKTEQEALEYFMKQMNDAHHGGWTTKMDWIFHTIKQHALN
Experiment: Enzyme Assay
property-label: log10 IC50 (log10 of the value in µM)
Hi team, quick reminder: these entries are log10 of IC50 (µM).

In [3]: df
Out[3]:
                            chemical_string  property_label  reported
0  O=c1c2c(Cl)cccc2nc([C@@H]2CSCN2c2ncnc3[nH]cnc23)n1-c1ccccc1C1CC1      log10 IC50      0.90
1  Cc1nc(N)nc(N2C[C@@H](O)C[C@H]2c2nc3cccc(OC(F)F)c3c(=O)n2-c2ccccc2)c1C#N      log10 IC50     -0.35
2  Cn1cnc2c(N3CCC[C@H]3c3nc4cccc(Cl)c4c(=O)n3N3CCOCC3)nc(N)nc21      log10 IC50      0.72
3  Cc1c(F)ccc2nc([C@@H]3C[C@H](O)CN3c3ncnc(N)c3C#N)n(-c3ccccc3)c(=O)c12      log10 IC50      0.34
4  N#Cc1c(N)nc(N)nc1N1CCC[C@H]1c1nc2cccc(C(F)(F)F)c2c(=O)n1-c1ccccc1      log10 IC50     -0.54

Just so you know, measured log10 IC50 for "COc1ccc(-n2c([C@@H]3CCCN3c3nc(N)nc4[nH]cnc34)nc3cccc(Cl)c3c2=O)cn1" came out at 0.92

Lab note: measured log10 IC50 of "Cc1nc(N)nc(N2C[C@@H](O)C[C@H]2c2nc3ccc(F)c(Cl)c3c(=O)n2-c2ccccc2)c1C#N" was -0.55
